# Assay Overview: adipocyte viability effects, profiling panel, cell-based, 3T3-L1 adipocytes, calcein-AM fluorescence, 48 h, basal (AID 1163); further: test concentration not given here
# Measurement Setup: 3T3-L1 adipocytes viability, higher = more signal
Value Type: z-score
Answer with a bare number; do not write a unit.

The following compounds have reported results that may help.
{"columns": ["Compound", "Value Type", "Measured"],
 "data": [
  ["CO[C@H]1COC(=O)CC=C[C@H](C)[C@@H](OC)COC(=O)[C@H](Cc2ccccc2)NC(=O)CC=C[C@@H]1C", "z-score", 1.57],
  ["COc1ccc([Si](C)(C)[C@H]2[C@H](CC(=O)N(CCO)Cc3ccccc3)O[C@@]3(C(=O)N(C)c4ccccc43)[C@@H]2C)cc1", "z-score", 0.899],
  ["COCCOC(=O)N1C(=O)[C@@]2(c3cc(C#CC4=CCCCC4)ccc31)[C@H](C(=O)NC[C@H](O)c1ccccc1)[C@H]1C(=O)O[C@H](c3ccccc3)[C@H](c3ccccc3)N1[C@@H]2c1ccccc1OCCO", "z-score", -0.383],
  ["O=C1C2C=CC(C(O)C#Cc3ccccc3)N(Nc3ccccc3)C2C(=O)N1c1ccccc1 (stereo not given)", "z-score", -1.26],
  ["O=C/C=C/c1ccc(/C=C/c2ccccc2)cc1", "z-score", -0.111]
]}

# get_value(readout='z-score', item= O=C1O[C@@H](c2ccccc2)[C@@H](c2ccccc2)N2[C@@H](c3ccccc3OCCO)[C@]3(C(=O)Nc4ccc(C#CC5=CCCCC5)cc43)[C@@H](C(=O)O)[C@H]12 ) 1.61

Try this compound too: C=C(CCCC)/C(=C/C[C@H](OC(=O)c1ccncc1)c1cccc(OCCO)c1)c1cc(C(=O)OC)ccc1OC 2.52

Also CO[C@H]1COC(=O)[C@@H](C)NC(=O)CC=C[C@@H](C)[C@H](OC)COC(=O)CC=C[C@@H]1C ? 0.518

This collection of values is drawn from PubChem BioAssay.
